# Target Or System: Bone morphogenetic protein receptor type-1B (Homo sapiens)
# Method: Inhibition of BMPR1b assessed as activity remaining at 10 uM by competitive binding inhibition assay
Metric: Activity (%)

Smiles Repr	Target Or System	Metric	Experimental Value
CNC(=O)NC[C@H]1O[C@@H](n2cnc3c(NC(=O)Nc4ccccc4)ncnc32)[C@H](OC(C)=O)[C@@H]1OC(C)=O	Bone morphogenetic protein receptor type-1B (Homo sapiens)	Activity	95
CNC(=O)NC[C@H]1O[C@@H](n2cnc3c(NC(=O)Nc4ccccc4)ncnc32)[C@H](O[Si](C(C)C)(C(C)C)C(C)C)[C@@H]1O[Si](C(C)C)(C(C)C)C(C)C	Bone morphogenetic protein receptor type-1B (Homo sapiens)	Activity	100
CNC(=O)NC[C@H]1O[C@@H](n2cnc3c(NC(=O)Nc4ccccc4)ncnc32)[C@H](OC(=O)C(C)C)[C@@H]1OC(=O)C(C)C	Bone morphogenetic protein receptor type-1B (Homo sapiens)	Activity	100
CNC(=O)NC[C@H]1O[C@@H](n2cnc3c(NC(=O)Nc4ccccc4)ncnc32)[C@H](O[Si](c2ccccc2)(c2ccccc2)C(C)(C)C)[C@@H]1O[Si](c1ccccc1)(c1ccccc1)C(C)(C)C	Bone morphogenetic protein receptor type-1B (Homo sapiens)	Activity	100
CNC(=O)NC[C@H]1O[C@@H](n2cnc3c(NC(=O)Nc4ccccc4)ncnc32)[C@H](OC(=O)c2ccccc2)[C@@H]1OC(=O)c1ccccc1	Bone morphogenetic protein receptor type-1B (Homo sapiens)	Activity	100
CC[Si](CC)(CC)O[C@@H]1[C@H](O[Si](CC)(CC)CC)[C@@H](CNC(=O)NC)O[C@H]1n1cnc2c(NC(=O)Nc3ccccc3)ncnc21	Bone morphogenetic protein receptor type-1B (Homo sapiens)	Activity	100

Source listed as ChEMBL document CHEMBL2086355.
